All values here come from patent US9663429B2.

Protein target, amino acids: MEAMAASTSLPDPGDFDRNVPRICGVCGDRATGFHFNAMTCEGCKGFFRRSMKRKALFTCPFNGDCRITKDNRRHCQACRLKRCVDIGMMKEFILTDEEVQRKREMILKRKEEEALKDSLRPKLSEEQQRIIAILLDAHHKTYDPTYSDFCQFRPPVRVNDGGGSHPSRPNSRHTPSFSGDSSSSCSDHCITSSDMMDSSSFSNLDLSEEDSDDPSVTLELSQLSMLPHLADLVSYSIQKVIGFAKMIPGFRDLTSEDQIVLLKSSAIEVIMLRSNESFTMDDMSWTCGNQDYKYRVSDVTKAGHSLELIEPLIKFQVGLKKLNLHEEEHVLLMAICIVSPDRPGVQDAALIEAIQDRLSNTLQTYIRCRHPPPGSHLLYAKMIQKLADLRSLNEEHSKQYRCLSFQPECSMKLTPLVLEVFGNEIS

>  <compound>
C=C1/C(=C\C=C(/CC)c2cccc(CCCCCC(C)(C)O)c2)C[C@@H](O)C[C@@H]1O [PG-136p]

>  <IC50 [µM]>
0.00711

$$$$
>  <compound>
C=C1/C(=C\C=C(/CCC)c2cccc(CCCCCC(C)(C)O)c2)C[C@@H](O)C[C@@H]1O

>  <IC50 [µM]>
0.0176

$$$$
>  <compound>
C=C1/C(=C\C=C(/CCCC)c2cccc(CCCCCC(C)(C)O)c2)C[C@@H](O)C[C@@H]1O

>  <IC50 [µM]>
0.0136

$$$$
